Data provenance: patent US20100239597A1

system tested: T1, biotin-Aβ1-20 (UniProt P05067 672-691, biotin (site not stated))
T1 construct: domain: Aβ1-20; Monomeric Aβ fragment used as BIACORE antigen; also called biotinylated-Aβ1-20
T1 peptide (looked up): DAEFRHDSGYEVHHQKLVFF
test details: BIACORE, Fab against biotinylated-Aβ1-20
observed property: pKd
Scale explanation: pKd corresponds to minus log10 of a concentration expressed in moles per litre.

// 4b-D4 Fab (Fab, V domains shown) VH: QVTLKESGPALVKPTQTLTLTCTLSGFSLSTSGMGVGWIRQPPGKALEWLAHIWWDDDKSYNPSLKSRLTISKDTSKNQVVLTMTNMDPVDTATYYCARRQLGMATPDAMDYWGQGTTVTVSS VL: DVVMTQSPLSLPVTPGEPASISCRSSQSILHSNGNTYLEWYLQKPGQSPQLLIYKVSNRFSGVPDRFSGSGSGTDFTLKISRVEAEDVGVYYCLQTTRVPLTFGQGTKLEIKR : pKd value = 8.31

GET /value?item= 4a-D5 Fab (Fab, V domains shown) VH: QVTLKESGPALVKPTQTLTLTCTLSGFSLSTSGMGVGWIRQPPGKALEWLAHIWWDDDKSYNPSLKSRLTISKDTSKNQVVLTMTNMDPVDTATYYCARRQLGDNVADAMDYWGQGTTVTVSS VL: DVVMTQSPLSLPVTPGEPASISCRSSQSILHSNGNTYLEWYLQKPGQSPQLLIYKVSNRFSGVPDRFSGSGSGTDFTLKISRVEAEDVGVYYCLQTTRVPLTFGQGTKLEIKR &field=pKd returns 8.41

Noted for 4a-E10 Fab (Fab, V domains shown) VH: QVTLKESGPALVKPTQTLTLTCTLSGFSLSTSGMGVGWIRQPPGKALEWLAHIWWDDDKSYNPSLKSRLTISKDTSKNQVVLTMTNMDPVDTATYYCARRQLGFQSTDAMDYWGQGTTVTVSS VL: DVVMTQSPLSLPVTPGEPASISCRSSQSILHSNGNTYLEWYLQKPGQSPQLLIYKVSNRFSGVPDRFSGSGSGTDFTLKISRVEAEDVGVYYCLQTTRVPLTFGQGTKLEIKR : its pKd reads 8.44
